EXPERIMENTAL_SYSTEM: T1, human PCSK9 (human, UniProt Q8NBP7 31-692, limits assumed)
T1 construct: also called hPCSK9; huPCSK9
T1 sequence (Q8NBP7 31-692 limits assumed): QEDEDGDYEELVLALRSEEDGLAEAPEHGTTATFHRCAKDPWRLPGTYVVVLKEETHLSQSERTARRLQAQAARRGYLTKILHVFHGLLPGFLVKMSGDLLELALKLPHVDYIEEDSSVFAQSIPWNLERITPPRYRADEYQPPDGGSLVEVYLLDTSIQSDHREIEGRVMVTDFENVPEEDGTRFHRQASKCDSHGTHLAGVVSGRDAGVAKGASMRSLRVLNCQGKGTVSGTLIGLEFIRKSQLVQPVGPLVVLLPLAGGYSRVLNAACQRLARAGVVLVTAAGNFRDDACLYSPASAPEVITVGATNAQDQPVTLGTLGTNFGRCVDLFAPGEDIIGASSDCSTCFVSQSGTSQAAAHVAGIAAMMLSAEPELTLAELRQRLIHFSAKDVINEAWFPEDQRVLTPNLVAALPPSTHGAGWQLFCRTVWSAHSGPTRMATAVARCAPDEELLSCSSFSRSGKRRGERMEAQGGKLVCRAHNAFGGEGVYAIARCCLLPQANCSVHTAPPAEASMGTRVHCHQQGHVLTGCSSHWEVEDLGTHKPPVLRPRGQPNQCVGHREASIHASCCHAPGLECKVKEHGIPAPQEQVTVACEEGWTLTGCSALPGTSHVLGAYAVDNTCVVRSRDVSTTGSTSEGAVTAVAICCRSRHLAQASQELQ
PROTOCOL_SUMMARY: SPR Biacore 3000, captured IgG, hPCSK9 injected, pH 5.5
Experimental: These antibodies were expressed and purified for determination of their KD at 7.4 and their KD ratio of pH5.5/pH 7.4, as measured on a surface plasmon resonance Biacore 3000 biosensor equipped with a research-grade sensor chip using HBS-EP running buffer (Biacore AB, Uppsala, Sweden—now GE Healthcare). […] Dissociation was monitored for 5 min. […]
Let's look at some binders and their measured kon.
All answers are understood in M⁻¹ s⁻¹, so give the number only.

BINDER	kon (M⁻¹ s⁻¹)
6L1721H23 (antibody, V domains shown, L1L3-based mutant; Full-length IgG) VH: QVQLVQSGAEVKKPGASVKVSCKASGYTFTSYYMHWVRQAPGQGLEWMGEIHPFGGRTNYNEKFKSRVTMTRDTSTSTVYMELSSLRSEDTAVYYCARERPLYASDLWGQGTTVTVSS VL: DIQMTQSPSSLSASVGDRVTITCRASQGIHSALAWYQQKPGKAPKLLIYHASYRYTGVPSRFSGSGSGTDFTFTISSLQPEDIATYYCQQRYSLWRTFGQGTKLEIK	110000
5L1721H23_6H3 (antibody, V domains shown, Only CDRs printed; Full-length IgG) VH: QVQLVQSGAEVKKPGASVKVSCKASGYTFTSYYMHWVRQAPGQGLEWMGEIHPSGGRTNYNEKFKSRVTMTRDTSTSTVYMELSSLRSEDTAVYYCARERPLYASDLWGQGTTVTVSS VL: DIQMTQSPSSLSASVGDRVTITCKASQDVHTAVAWYQQKPGKAPKLLIYHASYRYTGVPSRFSGSGSGTDFTFTISSLQPEDIATYYCQQRYSTPRTFGQGTKLEIK	141000

Input: Which kon is listed for 5L1721H23 (antibody, V domains shown, Triple histidine mutant of h5A10; Only CDRs printed; Full-length IgG) VH: QVQLVQSGAEVKKPGASVKVSCKASGYTFTSYYMHWVRQAPGQGLEWMGEIHPSGGRTNYNEKFKSRVTMTRDTSTSTVYMELSSLRSEDTAVYYCARERPLYAMDYWGQGTTVTVSS VL: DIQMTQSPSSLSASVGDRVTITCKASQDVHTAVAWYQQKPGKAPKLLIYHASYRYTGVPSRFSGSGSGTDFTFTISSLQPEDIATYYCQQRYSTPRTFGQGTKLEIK ?
Output: 124000
